- Tested on: BLK;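 also: KINOMEscan kinase panel screen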
- Condition: concentration: 1 μM, replicates: in singlicate; n = 1
Observable: %Inh (%)
One number for each entry, in %.

## Input Fill in %Inh for CN(c1ccc2c(c1)nc(NCc1ccccc1)n2C)c1ccnc(Nc2ccc(CS(C)(=O)=O)cc2)n1.Cl [GW811603] tested with BLK.
## Output 39

## Input Under BLK: report %Inh of N#CC1(c2cccc(C(=O)Nc3cccc(Oc4ccc5nc(NC(=O)C6CC6)sc5n4)c3)c2)CC1 .
## Output 95.2

## Input Check BLK data and give %Inh for Cl.O=C(Nc1ccc(Oc2ccc3[nH]c(NC(=O)c4ccco4)nc3c2)cc1)Nc1cc(C(F)(F)F)ccc1F [GW683134] .
## Output 54

Please turn your attention to the following entry.
## Input State %Inh (BLK) of COc1cccc(NC(=O)NCCNc2ccnc(Nc3ccc(F)cc3)n2)c1 [GSK1379879] .
## Output 18
